# assay-system: VR1/TRPV1 receptor (Homo sapiens (Human))
# protocol: Inhibition of human VR1/TRPV1 following pH-stimulus
# Assay type: cell-based
# conditions: @ 10 μM, read-out: inhibition (in percent) following pH-stimulus (Human)
The threshold is inclusive: inhibition at 10 µM of exactly 40% counts as 1.0; values below receive 0.0.

>>> category("CC1CCN(c2nc(C(F)(F)F)ccc2CNC(=O)C(C)c2cc(Br)c(O)c(Br)c2)CC1 (centres unmarked) [Example 19]")
0.0
>>> category("CC1CCN(c2nc(C(F)(F)F)ccc2CNC(=O)Cc2cc(Br)c(O)c(Br)c2)CC1 [Example 23]")
0.0
>>> category("CC1CCN(c2nc(C(F)(F)F)ccc2CNC(=O)C(C)c2cc(O)c([N+](=O)[O-])c(F)c2)CC1 (centres unmarked) [Example 27]")
1.0
>>> category("COc1cc(CC(=O)NCc2ccc(C(F)(F)F)nc2N2CCC(C)CC2)cc(Br)c1O [Example 21]")
0.0
>>> category("CC1CCN(c2nc(C(F)(F)F)ccc2CNC(=O)C(C)c2cc(Br)c(N)c(Br)c2)CC1 (centres unmarked) [Example 20]")
0.0

---

# assay-system: VR1/TRPV1 receptor (Homo sapiens (Human), UniProt Q8NER1)
# Sequence (Q8NER1 whole entry): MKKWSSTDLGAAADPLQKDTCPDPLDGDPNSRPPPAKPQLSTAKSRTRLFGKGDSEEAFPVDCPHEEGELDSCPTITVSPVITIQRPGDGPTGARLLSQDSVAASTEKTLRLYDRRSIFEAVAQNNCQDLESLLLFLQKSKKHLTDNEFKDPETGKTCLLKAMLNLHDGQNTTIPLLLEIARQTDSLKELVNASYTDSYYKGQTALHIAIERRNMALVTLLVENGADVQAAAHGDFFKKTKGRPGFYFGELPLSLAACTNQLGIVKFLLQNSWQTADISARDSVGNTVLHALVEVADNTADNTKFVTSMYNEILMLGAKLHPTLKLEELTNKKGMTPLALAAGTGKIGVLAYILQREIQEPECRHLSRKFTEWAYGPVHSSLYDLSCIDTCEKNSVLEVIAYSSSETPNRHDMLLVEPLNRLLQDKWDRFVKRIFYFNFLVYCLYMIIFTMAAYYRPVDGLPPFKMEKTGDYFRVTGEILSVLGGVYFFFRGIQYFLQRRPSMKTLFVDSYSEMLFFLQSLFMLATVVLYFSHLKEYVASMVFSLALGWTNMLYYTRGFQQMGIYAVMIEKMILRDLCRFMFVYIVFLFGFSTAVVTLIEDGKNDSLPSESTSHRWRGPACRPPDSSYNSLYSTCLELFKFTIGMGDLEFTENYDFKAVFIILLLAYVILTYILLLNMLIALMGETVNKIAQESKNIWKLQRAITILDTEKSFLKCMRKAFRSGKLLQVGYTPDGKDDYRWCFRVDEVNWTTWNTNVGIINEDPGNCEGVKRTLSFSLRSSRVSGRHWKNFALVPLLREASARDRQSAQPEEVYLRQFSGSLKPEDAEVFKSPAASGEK
# protocol: Inhibition of human VR1/TRPV1 following pH-stimulus
# Assay type: cell-based
# conditions: @ 5 μM, read-out: inhibition (in percent) following pH-stimulus (Human)
attribute-measured: inhibition at 5 µM (%)

>>> measured_number("COc1cc(CC(=O)NCc2ccc(C(F)(F)F)nc2N2CCC(C)CC2)cc(Br)c1O")
4
>>> measured_number("CC1CCN(c2nc(C(F)(F)F)ccc2CNC(=O)C(C)c2cc(O)c([N+](=O)[O-])c(F)c2)CC1 (centres unmarked)")
35
>>> measured_number("CC1CCN(c2nc(C(F)(F)F)ccc2CNC(=O)C(C)c2cc(Br)c(O)c(Br)c2)CC1 (centres unmarked)")
20
>>> measured_number("CC1CCN(c2nc(C(F)(F)F)ccc2CNC(=O)Cc2cc(Br)c(O)c(Br)c2)CC1")
8
>>> measured_number("CC1CCN(c2nc(C(F)(F)F)ccc2CNC(=O)C(C)c2cc(Br)c(N)c(Br)c2)CC1 (centres unmarked)")
10

---

This section presents compounds with their documented Ki values.
# assay-system: vanilloid receptor (VR1) (Homo sapiens (Human), UniProt Q8NER1)
# protocol: FLIPR Ca2+ influx assay on CHO-K1 cells transfected with the human VR1 gene, capsaicin stimulus (Pharmacological Method II)
attribute-measured: Ki

>>> result("CC1CCN(c2nc(C(F)(F)F)ccc2CNC(=O)C(C)c2cc(Br)c(O)c(Br)c2)CC1 (stereo not shown)")
"1.1 nM"
>>> result("CC1CCN(c2nc(C(F)(F)F)ccc2CNC(=O)C(C)c2cc(F)c(N)c(F)c2)CC1 (stereo not shown)")
"9.6 nM"
>>> result("CC1CCN(c2nc(C(F)(F)F)ccc2CNC(=O)Cc2c(F)cccc2F)CC1")
"38 nM"
>>> result("CC1CCN(c2nc(C(F)(F)F)ccc2CNC(=O)Cc2cc(Br)c(O)c(Br)c2)CC1")
"0.3 nM"
